The measurements presented in this section are drawn from the kinase profiling compilation of Christmann-Franck et al. (2016).

Target Or Test System: SRPK2 (human) (UniProt P78362)
Sequence (P78362 whole entry, looked up): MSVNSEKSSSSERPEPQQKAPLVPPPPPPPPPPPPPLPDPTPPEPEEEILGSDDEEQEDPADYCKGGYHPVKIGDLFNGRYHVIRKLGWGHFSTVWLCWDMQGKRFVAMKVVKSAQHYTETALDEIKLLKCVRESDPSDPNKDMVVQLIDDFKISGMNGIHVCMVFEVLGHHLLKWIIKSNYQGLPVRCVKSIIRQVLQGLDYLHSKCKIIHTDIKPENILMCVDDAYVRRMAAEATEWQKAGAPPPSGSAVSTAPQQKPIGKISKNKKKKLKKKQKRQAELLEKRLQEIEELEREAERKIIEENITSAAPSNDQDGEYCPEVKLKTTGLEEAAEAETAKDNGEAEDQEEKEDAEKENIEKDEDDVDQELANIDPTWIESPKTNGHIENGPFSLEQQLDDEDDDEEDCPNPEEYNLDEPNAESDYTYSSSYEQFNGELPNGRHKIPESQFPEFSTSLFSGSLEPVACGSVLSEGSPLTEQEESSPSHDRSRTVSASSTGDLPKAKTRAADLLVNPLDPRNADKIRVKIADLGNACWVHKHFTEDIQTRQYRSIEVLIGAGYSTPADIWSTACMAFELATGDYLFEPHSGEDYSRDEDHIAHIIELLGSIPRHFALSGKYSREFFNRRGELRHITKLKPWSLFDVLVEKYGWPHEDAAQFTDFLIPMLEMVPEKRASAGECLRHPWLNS
Experiment Summary: KINOMEscan competition binding
Condition Label: compound 10.0 µM
Metric Name: kinase still bound, per cent of control

{"Smiles Code": "COc1cc(N2CCN(C)CC2)ccc1Nc1nc(N)c(C(=O)c2c(Cl)cccc2Cl)s1", "Target Or Test System": "SRPK2 (human) (UniProt P78362)", "Metric Name": "kinase still bound, per cent of control", "Measurement": "100%"}
{"Smiles Code": "CCC(=O)N1CCN(c2ccc(-n3c(=O)ccc4cnc5ccc(-c6cnc7ccccc7c6)cc5c43)cc2C(F)(F)F)CC1", "Target Or Test System": "SRPK2 (human) (UniProt P78362)", "Metric Name": "kinase still bound, per cent of control", "Measurement": "100%"}
{"Smiles Code": "Cc1ccc2nc(NCCN)c3ncc(C)n3c2c1", "Target Or Test System": "SRPK2 (human) (UniProt P78362)", "Metric Name": "kinase still bound, per cent of control", "Measurement": "89%"}
{"Smiles Code": "CCCS(=O)(=O)Nc1ccc(F)c(C(=O)c2c[nH]c3ncc(-c4ccc(Cl)cc4)cc23)c1F", "Target Or Test System": "SRPK2 (human) (UniProt P78362)", "Metric Name": "kinase still bound, per cent of control", "Measurement": "100%"}
{"Smiles Code": "OCCCNc1cc(-c2ccnc(Nc3cccc(Cl)c3)n2)ccn1", "Target Or Test System": "SRPK2 (human) (UniProt P78362)", "Metric Name": "kinase still bound, per cent of control", "Measurement": "100%"}
{"Smiles Code": "CN(C)C/C=C/C(=O)Nc1cccc(Nc2ncc3c(n2)N(C)c2ccccc2C(=O)N3C)c1", "Target Or Test System": "SRPK2 (human) (UniProt P78362)", "Metric Name": "kinase still bound, per cent of control", "Measurement": "100%"}
{"Smiles Code": "N#Cc1c(NC(=O)c2cccc3ccccc23)sc2c1CCCC2", "Target Or Test System": "SRPK2 (human) (UniProt P78362)", "Metric Name": "kinase still bound, per cent of control", "Measurement": "100%"}
{"Smiles Code": "O=C(NOC[C@H](O)CO)c1ccc(F)c(F)c1Nc1ccc(I)cc1F", "Target Or Test System": "SRPK2 (human) (UniProt P78362)", "Metric Name": "kinase still bound, per cent of control", "Measurement": "100%"}
{"Smiles Code": "CCOc1cc2ncc(C#N)c(Nc3ccc(OCc4ccccn4)c(Cl)c3)c2cc1NC(=O)/C=C/CN(C)C", "Target Or Test System": "SRPK2 (human) (UniProt P78362)", "Metric Name": "kinase still bound, per cent of control", "Measurement": "85%"}
{"Smiles Code": "Cc1ccc(NC(=O)c2cccc(C(C)(C)C#N)c2)cc1Nc1ccc2ncn(C)c(=O)c2c1", "Target Or Test System": "SRPK2 (human) (UniProt P78362)", "Metric Name": "kinase still bound, per cent of control", "Measurement": "100%"}

====

Target Or Test System: CDK5 (human) (UniProt Q00535)
Sequence (Q00535 whole entry, looked up): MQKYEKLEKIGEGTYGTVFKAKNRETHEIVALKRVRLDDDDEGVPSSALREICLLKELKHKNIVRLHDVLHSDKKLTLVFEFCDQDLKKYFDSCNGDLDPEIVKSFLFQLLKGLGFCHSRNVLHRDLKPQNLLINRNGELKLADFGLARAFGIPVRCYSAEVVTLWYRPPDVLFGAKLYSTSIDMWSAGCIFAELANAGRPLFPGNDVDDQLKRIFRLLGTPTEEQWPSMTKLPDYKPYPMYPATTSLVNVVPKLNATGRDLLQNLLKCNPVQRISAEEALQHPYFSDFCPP
Experiment Summary: KINOMEscan competition binding
Condition Label: compound 10.0 µM
Reported kinase still bound, per cent of control values for the following compounds.
Metric Name: kinase still bound, per cent of control (%)

{"Compound": "COc1cc(C(=O)NC2CCN(C)CC2)ccc1Nc1ncc2c(n1)N(C1CCCC1)C(C)CC(=O)N2C (stereo unspecified)", "Unit Info": "%", "Measurement": 100}
{"Compound": "O=C(NC1CC1)c1cccc(-c2ccc3c(NC(=O)C4CC4)n[nH]c3c2)c1", "Unit Info": "%", "Measurement": 60}
{"Compound": "C=CC(=O)Nc1cc(NC(=O)c2ccc(C)c(NC(=O)c3ccno3)c2)cc(C(F)(F)F)c1", "Unit Info": "%", "Measurement": 90}
{"Compound": "CCCS(=O)(=O)Nc1ccc(F)c(C(=O)c2c[nH]c3ncc(-c4ccc(Cl)cc4)cc23)c1F", "Unit Info": "%", "Measurement": 96}
{"Compound": "O=C1Nc2ccc(I)cc2/C1=C/c1cc(Br)c(O)c(Br)c1", "Unit Info": "%", "Measurement": 83}
{"Compound": "Cc1ccc(NC(=O)c2cccc(C(C)(C)C#N)c2)cc1Nc1ccc2ncn(C)c(=O)c2c1", "Unit Info": "%", "Measurement": 100}
{"Compound": "CC[C@@H]1C(=O)N(C)c2cnc(Nc3ccc(C(=O)NC4CCN(C)CC4)cc3OC)nc2N1C1CCCC1", "Unit Info": "%", "Measurement": 100}
{"Compound": "C=CC(=O)Nc1cccc(Nc2nc(N[C@H]3CC[C@H](N(C)C)CC3)nc3c2ncn3C(C)C)c1", "Unit Info": "%", "Measurement": 80}
{"Compound": "N#Cc1c(NC(=O)c2cccc3ccccc23)sc2c1CCCC2", "Unit Info": "%", "Measurement": 100}
{"Compound": "COc1cc(N2CCN(C)CC2)ccc1Nc1nc(N)c(C(=O)c2c(Cl)cccc2Cl)s1", "Unit Info": "%", "Measurement": 88}
{"Compound": "Cc1ccc2nc(NCCN)c3ncc(C)n3c2c1", "Unit Info": "%", "Measurement": 100}
